# systemName: FGFR4 (Homo sapiens (Human))
# Sequence (P22455 22-802): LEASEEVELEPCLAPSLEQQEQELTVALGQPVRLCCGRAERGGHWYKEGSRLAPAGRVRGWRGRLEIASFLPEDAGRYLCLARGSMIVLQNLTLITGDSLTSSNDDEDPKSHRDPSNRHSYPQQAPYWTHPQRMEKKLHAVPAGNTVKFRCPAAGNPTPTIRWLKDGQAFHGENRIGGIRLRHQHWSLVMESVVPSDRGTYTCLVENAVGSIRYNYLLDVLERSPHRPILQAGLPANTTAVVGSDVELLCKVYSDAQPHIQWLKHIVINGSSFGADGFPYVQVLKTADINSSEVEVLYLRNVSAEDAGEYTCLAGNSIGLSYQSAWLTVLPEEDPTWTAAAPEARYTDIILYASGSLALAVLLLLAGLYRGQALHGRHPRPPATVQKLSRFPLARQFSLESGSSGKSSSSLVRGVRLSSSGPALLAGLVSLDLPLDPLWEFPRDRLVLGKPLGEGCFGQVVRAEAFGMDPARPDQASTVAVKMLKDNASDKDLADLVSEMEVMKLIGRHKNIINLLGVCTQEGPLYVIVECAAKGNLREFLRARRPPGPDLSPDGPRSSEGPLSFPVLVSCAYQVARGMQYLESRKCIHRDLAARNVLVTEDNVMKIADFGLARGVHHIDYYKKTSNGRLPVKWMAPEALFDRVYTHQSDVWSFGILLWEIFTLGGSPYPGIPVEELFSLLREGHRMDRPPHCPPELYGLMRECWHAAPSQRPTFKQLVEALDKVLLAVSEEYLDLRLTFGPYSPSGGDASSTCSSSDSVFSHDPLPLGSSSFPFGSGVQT
# procedureDetails: FGFR Enzymatic Assay (FRET peptide phosphorylation), FGFR4
# conditionDescription: IC50 ratio showing FGFR4 selectivity; pre-incubated for 5 to 10 minutes
Recorded FGFR1/FGFR4, one value per entry.

See these solved cases before continuing.
{"compound": "C=CC(=O)Nc1cc(-c2cc3c(cn2)CN(c2c(F)c(OC)cc(OC)c2F)C(=O)C32CC2)cc(N2CCOCC2)c1 [Example 10]", "FGFR1/FGFR4": ">100"}
{"compound": "C=CC(=O)N1CCCC(c2cc3c(cn2)CN(c2c(F)c(OC)cc(OC)c2F)C(=O)C32CC2)C1 (centres unmarked) [Example 8]", "FGFR1/FGFR4": ">5"}
{"compound": "C=CC(=O)Nc1cc(-c2cc3c(cn2)CN(c2c(F)c(OC)cc(OC)c2F)C(=O)C32CC2)c(C)cc1F [Example 6]", "FGFR1/FGFR4": ">100"}
{"compound": "C=CC(=O)Nc1ccc(C)c(-c2cc3c(cn2)CN(c2c(F)c(OC)cc(OC)c2F)C(=O)C32CC2)c1 [Example 2]", "FGFR1/FGFR4": ">100"}
{"compound": "C=CC(=O)Nc1cc(-c2cc3c(cn2)CN(c2c(F)c(OC)cc(OC)c2F)C(=O)C32CC2)ccc1CN1CCOCC1 [Example 12]", "FGFR1/FGFR4": ">10"}

Task: // fetch FGFR1/FGFR4 given entry C=CC(=O)Nc1ccc(C#N)c(-c2cc3c(cn2)CN(c2c(F)c(OC)cc(OC)c2F)C(=O)C32CC2)c1 [Example 5]
Result: >100

Task: // fetch FGFR1/FGFR4 given entry C=CC(=O)Nc1cnc(C)c(-c2cc3c(cn2)CN(c2c(F)c(OC)cc(OC)c2F)C(=O)C32CC2)c1 [Example 7]
Result: >100

Task: // fetch FGFR1/FGFR4 given entry C=CC(=O)Nc1cc(CN2CCOCC2)cc(-c2cc3c(cn2)CN(c2c(F)c(OC)cc(OC)c2F)C(=O)C32CC2)c1 [Example 11]
Result: >100
